TEST SYSTEM: BCRP (Homo sapiens)
Sequence (Q9UNQ0 1-655): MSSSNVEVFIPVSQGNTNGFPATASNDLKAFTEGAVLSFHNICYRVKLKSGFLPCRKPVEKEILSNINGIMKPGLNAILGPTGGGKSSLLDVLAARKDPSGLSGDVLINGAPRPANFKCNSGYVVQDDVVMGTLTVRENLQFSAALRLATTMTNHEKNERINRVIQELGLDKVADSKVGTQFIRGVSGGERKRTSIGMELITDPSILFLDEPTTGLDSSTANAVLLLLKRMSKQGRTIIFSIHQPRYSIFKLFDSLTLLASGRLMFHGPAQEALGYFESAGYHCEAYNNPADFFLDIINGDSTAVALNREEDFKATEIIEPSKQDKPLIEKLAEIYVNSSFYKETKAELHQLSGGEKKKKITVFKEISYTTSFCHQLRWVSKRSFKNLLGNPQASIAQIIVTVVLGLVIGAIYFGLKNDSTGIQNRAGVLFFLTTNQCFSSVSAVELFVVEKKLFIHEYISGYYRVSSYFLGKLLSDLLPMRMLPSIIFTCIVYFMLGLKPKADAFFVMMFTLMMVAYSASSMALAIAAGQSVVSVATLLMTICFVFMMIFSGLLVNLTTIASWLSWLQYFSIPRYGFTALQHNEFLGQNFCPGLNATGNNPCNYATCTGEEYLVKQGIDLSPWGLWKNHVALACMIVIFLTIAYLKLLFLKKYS
METHOD: in vitro
MEASUREMENT CONTEXT: Caco-2, Recovery rate (%) BL-AP
MEASURED QUANTITY: recovery at 2 h (%)
One number for each entry, in %.

Return value of recovery at 2 h for input CC(C)NCC(O)COc1cccc2ccccc12 (stereo not shown) , no commentary. 82.4

* * *

Assignment: determine reported recovery at 2 h for the given compounds.
TEST SYSTEM: BCRP (Homo sapiens, UniProt Q9UNQ0)
METHOD: Study on transporter substrates in Caco-2 cell model
MEASUREMENT CONTEXT: human, Caco-2, with KO143 (concentration not stated), Recovery rate (%) BL-AP, Caco-2; KO143 +
Answers are plain numbers, in %.

// known answers, use as guide
COMPOUND | UNITS OF MEASURE | ASSAY RESULT
CC[C@@]1(O)C(=O)OCc2c1cc1n(c2=O)Cc2c-1nc1cc(F)c(C)c3c1c2[C@@H](N1CCC(O)C1=O)CC3 (some centres unmarked) | % | 80.3
CC(C)c1nc(N(C)S(C)(=O)=O)nc(-c2ccc(F)cc2)c1/C=C/[C@@H](O)C[C@@H](O)CC(=O)O [Rosuvastatin, rosuvastatin, reference compound] | % | 97.1
CC[C@@]1(O)C(=O)OCc2c1cc1n(c2=O)Cc2c-1nc1cc(F)c(C)c3c1c2[C@@H](NC(=O)[C@H]1C[C@@H](O)C1)CC3 | % | 76.5
CC[C@@]1(O)C(=O)OCc2c1cc1n(c2=O)Cc2c-1nc1cc(F)c(C)c3c1c2[C@@H](NC(=O)[C@H]1C[C@H](O)C1)CC3 | % | 63

Consider now this further compound.
Give a short answer stating reported recovery at 2 h for CC[C@@]1(O)C(=O)OCc2c1cc1n(c2=O)Cc2c-1nc1cc(F)c(C)c3c1c2[C@@H](NC(=O)C1CCC(O)CC1)CC3 (single isomer, unassigned) . 76.5

* * *

TEST SYSTEM: BCRP (Homo sapiens)
METHOD: Study on transporter substrates in Caco-2 cell model
MEASUREMENT CONTEXT: human, Caco-2, Recovery rate (%) BL-AP, Caco-2; KO143 −
MEASURED QUANTITY: recovery at 2 h (%)
Answers are plain numbers, in %.

Examples with answers:
MOLECULE | TEST SYSTEM | UNITS OF MEASURE | recovery at 2 h
CC[C@@]1(O)C(=O)OCc2c1cc1n(c2=O)Cc2c-1nc1cc(F)c(C)c3c1c2[C@@H](NC(=O)[C@H]1C[C@@H](O)C1)CC3 | BCRP (Homo sapiens) | % | 77.5
CC[C@@]1(O)C(=O)OCc2c1cc1n(c2=O)Cc2c-1nc1cc(F)c(C)c3c1c2[C@@H](NC(=O)[C@H]1C[C@H](O)C1)CC3 | BCRP (Homo sapiens) | % | 64
CC[C@@]1(O)C(=O)OCc2c1cc1n(c2=O)Cc2c-1nc1cc(F)c(C)c3c1c2[C@@H](NC(=O)C1CCC(O)CC1)CC3 (single isomer, unassigned) | BCRP (Homo sapiens) | % | 77.5

Provide recovery at 2 h for all items below, preserving their order.
1. CC(C)c1nc(N(C)S(C)(=O)=O)nc(-c2ccc(F)cc2)c1/C=C/[C@@H](O)C[C@@H](O)CC(=O)O [Rosuvastatin, rosuvastatin, reference compound]
2. CC[C@@]1(O)C(=O)OCc2c1cc1n(c2=O)Cc2c-1nc1cc(F)c(C)c3c1c2[C@@H](N1CCC(O)C1=O)CC3 (some centres unmarked)

1. 96.8
2. 76.1

* * *

System: NCI-N87 cells
METHOD: Inhibition of in vitro proliferation of tumor cells by compounds (CTG, 6 days)
Type: cell-based
MEASUREMENT CONTEXT: Homo sapiens, NCI-N87, 144 h, Table 1, Test Example 2.1; small molecule fragments; 6 days of culture, CTG; read-out: NCI-N87 IC50
Each record is given YES if its reported IC50 is strictly below 8 nM. Records at or above 8 nM are given NO.

COMPOUND | TEST SYSTEM | GROUP LABEL
CC[C@@]1(O)C(=O)OCc2c1cc1n(c2=O)Cc2c-1nc1cc(F)c(C)c3c1c2[C@@H](NC(=O)C1CCC(O)CC1)CC3 (single isomer, unassigned) [P-II-1] | NCI-N87 cells | NO
CC[C@@]1(O)C(=O)OCc2c1cc1n(c2=O)Cc2c-1nc1cc(F)c(C)c3c1c2[C@@H](NC(=O)[C@H]1C[C@@H](O)C1)CC3 [P-II-3] | NCI-N87 cells | NO
CC[C@@]1(O)C(=O)OCc2c1cc1n(c2=O)Cc2c-1nc1cc(F)c(C)c3c1c2[C@@H](N1CCC(O)C1=O)CC3 (some centres unmarked) [P-I-1] | NCI-N87 cells | NO

# evaluate next
Is IC50 strictly under 8 nM for the entry CC[C@@]1(O)C(=O)OCc2c1cc1n(c2=O)Cc2c-1nc1cc(F)c(C)c3c1c2[C@@H](NC(=O)C[C@@H](C)O)CC3 [P-III-20] ? YES

* * *

Tested on: NCI-N87 cells
METHOD: Inhibition of in vitro proliferation of tumor cells by compounds (CTG, 6 days)
Format: cell-based
MEASUREMENT CONTEXT: Table 2 (untitled), Test Example 2.2; small molecule fragments; 6 days of culture, CTG; read-out: NCI-N87 IC50
Protocol: To test the inhibitory activity of the pharmaceutical compounds on the in vitro proliferation of NCI-N87, JIMT-1 and MBA-MB-231 tumor cells. The cells were treated with the compounds at different concentrations in vitro, and after 6 days of culture, the proliferation of cells was detected using the CTG (CellTiter-Glo® Luminescent Cell Viability Assay, Promega, Cat. No. G7558) reagent, and the in vitro activity of the compounds was evaluated according to the IC50 value. […]
MEASURED QUANTITY: IC50 (nM)
One number for each entry, in nM.

// fetch IC50 given entry CC[C@@]1(O)C(=O)OCc2c1cc1n(c2=O)Cc2c-1nc1cc(F)c(C)c3c1c2[C@@H](NC(=O)C1CCC(O)CC1)CC3 (single isomer, unassigned) [P-II-2] 22.1

* * *

So I've got a bunch of molecules here, and I need their IC50 values.
Tested on: JIMT-1 cells
METHOD: Inhibition of in vitro proliferation of tumor cells by compounds (CTG, 6 days)
Type: cell-based
MEASUREMENT CONTEXT: Homo sapiens, JIMT-1, 144 h, read-out: JIMT-1 IC50 (nM)
Numbers only, in nM.

Guide cases for IC50, answers given:
MOLECULE | IC50 [nM]
CC[C@@]1(O)C(=O)OCc2c1cc1n(c2=O)Cc2c-1nc1cc(F)c(C)c3c1c2[C@@H](NC(=O)C(C)C(C)O)CC3 (stereo partly drawn) [compound 4, reference compound] | 32.3
CC[C@@]1(O)C(=O)OCc2c1cc1n(c2=O)Cc2c-1nc1cc(F)c(C)c3c1c2[C@@H](NC(=O)CC(C)(C)O)CC3 | 2.87

Query molecule follows.
Return reported IC50 for target or system JIMT-1 cells, item CC[C@@]1(O)C(=O)OCc2c1cc1n(c2=O)Cc2c-1nc1cc(F)c(C)c3c1c2[C@@H](NC(=O)C[C@@H](N)CO)CC3 . 16.7

* * *

System: JIMT-1 cells
METHOD: Inhibition of in vitro proliferation of tumor cells by compounds (CTG, 6 days)
Format: cell-based
MEASUREMENT CONTEXT: Table 1, Test Example 2.1; small molecule fragments; 6 days of culture, CTG; read-out: JIMT-1 IC50
Task for the reader: assign each of the following compounds its reported IC50.
Please answer in the form of a number followed by its unit of measurement.

Use these answered entries as a reference point.
COMPOUND | IC50
CC[C@@]1(O)C(=O)OCc2c1cc1n(c2=O)Cc2c-1nc1cc(F)c(C)c3c1c2[C@@H](NC(=O)C1CCC(O)CC1)CC3 (single isomer, unassigned) [P-II-1] | 0.00847 µM
CC[C@@]1(O)C(=O)OCc2c1cc1n(c2=O)Cc2c-1nc1cc(F)c(C)c3c1c2[C@@H](NC(=O)C1CCC(O)CC1)CC3 (single isomer, unassigned) [P-II-2] | 0.017 µM

// below: IC50 requested for another compound
Please give the documented IC50 of CC[C@@]1(O)C(=O)OCc2c1cc1n(c2=O)Cc2c-1nc1cc(F)c(C)c3c1c2[C@@H](N1CCC(O)C1=O)CC3 (stereo partly drawn) 0.0218 µM
